From: patent US20250152746A1

Each item that follows carries a reported Human Primary Hepatocyte Editing % 100.
# System: PCSK9 gene
# experiment: PCSK9 gRNA/SpCas9 editing in primary human hepatocytes (Tables 2, 4)
# Assay type: cell-based
# run conditions: 100 ng/RNA/mL; SpCas9 mRNA MS002 1:1 by weight
m = 2'-O-methyl; r = 2'-OH (RNA)
Field format: number, assumed %, no unit text.

Look over these answered cases.
INSERT INTO measurements (molecule, numeric_value) VALUES
  ('GA213: PCSK9 gRNA; protospacer CGTGCTCAACTGCCAAGGGA (SEQ ID NO: 207) (nucleic acid, sugars from the 5'' end m3 r94 m3, linkages s3 o93 s3 (s phosphorothioate, o phosphodiester), T or U not given here) guide: CGUGCUCAACUGCCAAGGGAGUUUUAGAGCUAGAAAUAGCAAGUUAAAAUAAGGCUAGUCCGUUAUCAACUUGAAAAAGUGGCACCGAGUCGGUGCUUUU', 2.17),
  ('GA212: PCSK9 gRNA; protospacer CGGGATGCCGGCGTGGCCAA (SEQ ID NO: 206) (nucleic acid, sugars from the 5'' end m3 r94 m3, linkages s3 o93 s3 (s phosphorothioate, o phosphodiester), T or U not given here) guide: CGGGAUGCCGGCGUGGCCAAGUUUUAGAGCUAGAAAUAGCAAGUUAAAAUAAGGCUAGUCCGUUAUCAACUUGAAAAAGUGGCACCGAGUCGGUGCUUUU', 1.17),
  ('GA229: PCSK9 gRNA; protospacer GTCGTGCTGGTCACCGCTGC (SEQ ID NO: 223) (nucleic acid, sugars from the 5'' end m3 r94 m3, linkages s3 o93 s3 (s phosphorothioate, o phosphodiester), T or U not given here) guide: GUCGUGCUGGUCACCGCUGCGUUUUAGAGCUAGAAAUAGCAAGUUAAAAUAAGGCUAGUCCGUUAUCAACUUGAAAAAGUGGCACCGAGUCGGUGCUUUU', 0.47);

Give its Human Primary Hepatocyte Editing % 100 value. Item: GA203: PCSK9 gRNA; protospacer TGACCCTGCCCTCGATTTCC (SEQ ID NO: 197) (nucleic acid, sugars from the 5' end m3 r94 m3, linkages s3 o93 s3 (s phosphorothioate, o phosphodiester), T or U not given here) guide: UGACCCUGCCCUCGAUUUCCGUUUUAGAGCUAGAAAUAGCAAGUUAAAAUAAGGCUAGUCCGUUAUCAACUUGAAAAAGUGGCACCGAGUCGGUGCUUUU 2.57

Give its Human Primary Hepatocyte Editing % 100 value. Item: GA246: PCSK9 gRNA; protospacer GCCAGCGCCTGGCGAGGGCT (SEQ ID NO: 239) (nucleic acid, sugars from the 5' end m3 r94 m3, linkages s3 o93 s3 (s phosphorothioate, o phosphodiester), T or U not given here) guide: GCCAGCGCCUGGCGAGGGCUGUUUUAGAGCUAGAAAUAGCAAGUUAAAAUAAGGCUAGUCCGUUAUCAACUUGAAAAAGUGGCACCGAGUCGGUGCUUUU 0.08

Give its Human Primary Hepatocyte Editing % 100 value. Item: GA214: PCSK9 gRNA; protospacer CCTTGGCCACGCCGGCATCC (SEQ ID NO: 208) (nucleic acid, sugars from the 5' end m3 r94 m3, linkages s3 o93 s3 (s phosphorothioate, o phosphodiester), T or U not given here) guide: CCUUGGCCACGCCGGCAUCCGUUUUAGAGCUAGAAAUAGCAAGUUAAAAUAAGGCUAGUCCGUUAUCAACUUGAAAAAGUGGCACCGAGUCGGUGCUUUU 1.94
